System: THRa homodimer (NR concentration 90 nM)
Test summary: PBM binding z-score (relative to random genomic background probes); higher = stronger binding; sequences stand for … in GC…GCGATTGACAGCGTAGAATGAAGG
Assign PBM binding z-score to each entry below.
Give only the figure.

Looking up ATATATAGGTTAAGGGTCATTCAGGTTGGTTCGC , I found its PBM binding z-score recorded as 2.03

// PBM binding z-score lookup, sequence = CGAACTAGGTCATTGACAGGACTGTGAATAGTAA , result: 0.524

For reference, reported PBM binding z-score for CAGCCTAGGTCAGGGGCAGTATAGGAGGAACGTT stands at 0.948

Entry CCGACTGGGGCAAAGGTTCCCATACTCAGTACGA , PBM binding z-score reported as -0.168

Summary for this sequence, TCTTGTAGATCAACAGGAGGTTAACAAAGATCGA : PBM binding z-score is 0.0101

PBM binding z-score recorded for this sequence, CCGACTGAGGCATAAGGTTACCATAAGCCAGCCC , is 1.53

Sure, the documented PBM binding z-score for ACAGACAGGTGCGTGAAGGTAACTCAGCTGGACG is -0.945

Reported PBM binding z-score for CCTTACGGGTCACTCCCGGTTATAGCATCGGAGT was 0.272

PBM binding z-score reported for this sequence GCTTGTAGATCAAGGTTAAGAAAGACTAAGCTAA : -0.422

Field PBM binding z-score (entry CGAACTAGGTCATCCAGGACTGTGAATACATTGA ) reads 1.17

For this sequence ( CCTTACGGGTCAAGGTTATTGCACGGGTGGTACG ), measured PBM binding z-score is 0.977

Consider GCATATAGGTAATACGAGGTGAAAGTCCGATTGT . Its measured PBM binding z-score is 1.41

* * *

Test system: RARa homodimer (NR concentration 270 nM)
Test summary: PBM binding z-score (relative to random genomic background probes); higher = stronger binding; sequences stand for … in GC…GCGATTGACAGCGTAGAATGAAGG
Recorded metric: PBM binding z-score
Write the value as a bare number.

// sample CCTAGCAGGCCGGGGTCACTCAAGCATTTCGCTT , its PBM binding z-score was 0.348

// recorded PBM binding z-score for AGAATGAGGTTATTAAGAACAGGGAATTGCGGTC : 0.488

Measured PBM binding z-score, CCTATTAGTTGACCATAAGGGCAATCGAAGCTCG : 2.18

Short answer for CCTATTAGTTGACCATAAGGGTAACCGAAGCTCG : PBM binding z-score was 2.48

Consider TCTGCTAGGTCAGTTCGTCAGCTAACGAGCTGCC . Its measured PBM binding z-score is -1.33

Value of measured PBM binding z-score for the entry GATACAGGGTCAGCTAGAGGCCAGGGTATGGAAA : 0.0773

For record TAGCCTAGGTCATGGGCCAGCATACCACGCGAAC the listed PBM binding z-score is -0.41

PBM binding z-score reported for this sequence CGTACAAGGTCAGAGAGGTCAGTGAATGCCGAGT : 1.83

Looking up CGTTACGGGTCACGAGGTTATAGCACGACGAGCG , I see its PBM binding z-score listed as 0.803

PBM binding z-score recorded for this sequence, AGAATGTGGTTAAGATCAGGGAAACAGAATACAT , is 0.647

Measured PBM binding z-score of ATCGAAAGGTCGAGGGGAGTATAGAGAAAGGGAA : 1.45

According to the records, this sequence ACAGACAGGTGAGTGAAGGTATCTCAGCTGGACG displays PBM binding z-score of -0.61

* * *

Tested on: VDR homodimer (NR concentration 270 nM)
Test summary: PBM binding z-score (relative to random genomic background probes); higher = stronger binding; sequences stand for … in GC…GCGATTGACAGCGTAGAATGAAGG
Give PBM binding z-score for every item shown.

Notebook: AATACAGGGTCTTCGTAGGCCAGAGTACGCACAG , PBM binding z-score read as 0.396

Consider CGTCAAAGTTCAACTAAGGCAACGTAAAGCACGC . Its measured PBM binding z-score is 3.68

Memo: CCTGCTAGGTCAATGGCCAGCTAAAGCAGCTCGC , reported PBM binding z-score: -0.525

Quick note, PBM binding z-score for CAAACTAGGTCACCGGAAGGTCAAAGTCCGCATG landed at 3.43

Data point: CTATCAAGGTGAACAAGGTCGTTGATTACTATTC ; PBM binding z-score = 2.72

Item: ACTCGGAGTACAAAGGTCAGAGCTACGCCAGTGA | PBM binding z-score: 1.63

* * *

System: RARb:RXRa (NR concentration 270 nM, RXRa partner concentration 90 nM)
Test summary: PBM binding z-score (relative to random genomic background probes); higher = stronger binding; sequences stand for … in GC…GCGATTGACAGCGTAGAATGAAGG
Would you please tag the item condition met when its PBM binding z-score is 0.6 or above, and condition not met when it is below?

**Query** Record CCTCGGAGTACAACAGGAGGTCAGAGCTGCCAGA ; criterion: PBM binding z-score no lower than 0.6. Met?
**Result** condition met

**Query** Does CTCGAAAGGTCGGTGGAGGTGAGTATACGGATAA have a reported PBM binding z-score of at least 0.6?
**Result** condition met

**Query** Could you tell me if the measured PBM binding z-score of AGTCAAAGATCACTAGGTAACGTAAGATTCAGCT reaches 0.6 or more?
**Result** condition not met

**Query** Check this sequence for PBM binding z-score at or above 0.6: CGTCCAAGGTCAAGGTCAGTGTAAGAGACTCGAA
**Result** condition met

**Query** Does CCAGACAGGTGAAAGGCAACTCAGTCTGGTACGC have a reported PBM binding z-score of at least 0.6?
**Result** condition met

**Query** Could you tell me if the measured PBM binding z-score of TCATATACGTAATACAGGTGAAAGTCGGCATCTA reaches 0.6 or more?
**Result** condition met

* * *

Tested on: PPARa:RXRa (NR concentration 270 nM, RXRa partner concentration 90 nM)
Test summary: PBM binding z-score (relative to random genomic background probes); higher = stronger binding; sequences stand for … in GC…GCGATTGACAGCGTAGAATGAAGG
Give measured PBM binding z-score for each item. Keep answers brief.
Kindly provide the number alone.

GET /values?item= ACTATTAGTTGAGACGAGGGTAACCGATAGGTTG &system= PPARa:RXRa (NR concentration 270 nM, RXRa partner concentration 90 nM) returns PBM binding z-score: -0.0411

Tested system PPARa:RXRa (NR concentration 270 nM, RXRa partner concentration 90 nM); PBM binding z-score recorded for CGTCCAAGGTCAATGCTAGTTCAGTGAAAGCATT was 4.84

# TTACCAAGGTGAAGGTCGTTGAACCCTCTGTAGA with PPARa:RXRa (NR concentration 270 nM, RXRa partner concentration 90 nM): PBM binding z-score is 3.27

Reported PBM binding z-score (PPARa:RXRa (NR concentration 270 nM, RXRa partner concentration 90 nM)) for entry TCATATAGGTAATACAGGTGAAAGTAGGCATCTA is 2.15

Hey, PPARa:RXRa (NR concentration 270 nM, RXRa partner concentration 90 nM) data for CTACCAAGGTGAACAAGGTCGTTGAATACTATTC : PBM binding z-score came out at 2.68

Param item: ACTTACGGGTCACCGAGGTTATAGCACGCGTATA ; param system: PPARa:RXRa (NR concentration 270 nM, RXRa partner concentration 90 nM); output PBM binding z-score: 6.19

Value (PBM binding z-score, PPARa:RXRa (NR concentration 270 nM, RXRa partner concentration 90 nM)) for record TCTAGTTGGTCACAGAGGTCACACACGACGGGTA = 4.84

The sequence TAGCCTAGGTCATTCAGGGGCCAGTAAAGAAAGC , tested on PPARa:RXRa (NR concentration 270 nM, RXRa partner concentration 90 nM), showed PBM binding z-score of 3.73

Test item CCGACTGGGGCATAAGGTTACCGTAAGCCAGCCC ; PPARa:RXRa (NR concentration 270 nM, RXRa partner concentration 90 nM); reported PBM binding z-score was 2.03

Assay PPARa:RXRa (NR concentration 270 nM, RXRa partner concentration 90 nM), sample CAAACTAGGTCACGAAAGGTCAAACTCGAATGAC , PBM binding z-score read: 6.75

Simply: AATACAGGGTCATCGTAGGCGAGAGTACGCACAG , PPARa:RXRa (NR concentration 270 nM, RXRa partner concentration 90 nM), PBM binding z-score = 5.94

The reported PPARa:RXRa (NR concentration 270 nM, RXRa partner concentration 90 nM) PBM binding z-score of CTCGAAAGGTCGGTTGAGGTGAGTACACGGATAA is 2.77
